Below, each entry is listed with its recorded z-score.
experiment: E. coli acrAB mutant growth effects, primary screen, E. coli filamentation inducers, strain DRC39, OD650, 24 h (AID 1178);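 further: growth measured as culture turbidity by optical density at 650 nm; test concentration not given here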
measurement.context: higher = more signal, called active from +8 up or from −8 down
// no unit string in output, number only

CO[C@H]1COC(=O)[C@H](C)COC(=O)CC=C[C@@H](C)[C@H](OC)COC(=O)CC=C[C@@H]1C
0.778
CC(C)c1ccc(NN2C(C(O)c3ccc4c(c3)OCO4)C=CC3C(=O)N(c4ccccc4)C(=O)C32)cc1 (stereo unspecified)
-0.167
CN1C(=O)C2C=CC(C(O)c3ccc(I)cc3)N(NC(=O)OC(C)(C)C)C2C1=O (stereo unspecified)
-0.446
C[C@@H]1CCC2C(=O)N(Cc3ccccc3)C[C@@H](O)CN2[C@H]1c1ccc(Br)cc1 (stereo partly specified)
0.957
CC(=O)OC[C@H]1O[C@H](CCON=C[C@@H](C)[C@H](OCc2ccccc2)C(C)C)C=C[C@@H]1OC(C)=O
-0.983
CO[C@@H]1COC(=O)[C@@H]2CCCN2C(=O)[C@@H](C)COC(=O)[C@H](COCc2ccccc2)NC(=O)CC=C[C@H]1C
-0.489
C=C(CCCC)C(=O)CC[C@@H](OC(C)=O)c1cccc(OCCO)c1
-0.55
C[C@@H](c1ccccc1)N1C(=O)[C@H]2[C@H]3[C@H](O)[C@H](O)CC(=NNC(=O)OCc4ccccc4)[C@H]3CC[C@H]2C1=O
-0.327

Param item = `COC(=O)[C@@]1(Cc2ccc(OC)cc2)[C@H]2c3cc(C(=O)N4CCCC4)n(Cc4cc(F)c(F)c(F)c4)c3C[C@H]2CN1C(=O)c1ccccc1` ; retrieve measured z-score.
-0.824

Param item = `COc1ccc([Si](C)(C)[C@@H]2[C@@H](CCO)O[C@]3(C(=O)N(Cc4ccc(NC(C)=O)cc4)c4ccccc43)[C@H]2C)cc1` ; retrieve measured z-score.
-0.486

Param item = `C#C[C@@H](CC)O[Si](C#Cc1ccc(Oc2ccccc2)cc1)(C(C)C)C(C)C` ; retrieve measured z-score.
-0.568
